Biological target: full-length beta-Catenin (Uniprot ID P35222) (Homo sapiens (Human)) (UniProt P35222)
Sequence (P35222 2-781 limits assumed): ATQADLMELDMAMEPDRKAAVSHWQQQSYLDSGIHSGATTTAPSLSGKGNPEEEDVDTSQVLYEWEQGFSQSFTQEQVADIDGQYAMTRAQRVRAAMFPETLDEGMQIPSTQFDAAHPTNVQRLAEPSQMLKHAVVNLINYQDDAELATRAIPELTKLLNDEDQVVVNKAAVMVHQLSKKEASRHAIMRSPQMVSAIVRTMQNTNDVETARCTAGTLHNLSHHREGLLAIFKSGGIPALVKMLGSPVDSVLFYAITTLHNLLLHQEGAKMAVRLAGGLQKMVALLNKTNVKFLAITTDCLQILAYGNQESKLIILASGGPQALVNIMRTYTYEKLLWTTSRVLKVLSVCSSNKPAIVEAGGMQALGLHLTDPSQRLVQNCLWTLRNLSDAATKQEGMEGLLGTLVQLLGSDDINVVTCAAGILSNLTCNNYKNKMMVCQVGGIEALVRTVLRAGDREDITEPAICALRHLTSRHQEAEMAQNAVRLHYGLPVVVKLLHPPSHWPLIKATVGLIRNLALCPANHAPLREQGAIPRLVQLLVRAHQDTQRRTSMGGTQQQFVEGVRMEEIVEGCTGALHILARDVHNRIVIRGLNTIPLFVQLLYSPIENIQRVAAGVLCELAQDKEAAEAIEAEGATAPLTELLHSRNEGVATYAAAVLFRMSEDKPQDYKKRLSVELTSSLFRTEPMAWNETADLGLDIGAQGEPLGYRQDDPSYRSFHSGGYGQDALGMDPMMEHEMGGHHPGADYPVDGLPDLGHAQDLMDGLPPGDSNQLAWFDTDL
Experiment: fluorescence polarization competition; full-length beta-catenin + 5FAM-TCF4(10-53) probe; peptide titrated
pEC50: −log10 of the molar value. Starred links: 1 amine or outer side, 2 acyl side, 3 side chain; linkers in the order of their positions; H or OH if unused. Positions of bridges follow the written chain, without caps; N, C: chain ends. Non-standard residues stand in square brackets, D forms with d. Primed or numbered codes have the meaning given here. PyrS2″ = (S)-3-amino-1-((pent-4-en-1-yloxy)carbonyl)pyrrolidine-3-carboxylic acid (stapling residue), C=CCCCOC(=O)N1CC[C@@](N[*:1])(C(=O)[*:2])C1; B5(4) = 2,2-bis(4-pentenyl)glycine = 2-amino-2-(pent-4-en-1-yl)hept-6-enoic acid (stitching residue), C=CCCCC(CCCC=C)(N[*:1])C(=O)[*:2]; B5(8) = 2,2-bis(4-pentenyl)glycine (2-amino-2-(pent-4-en-1-yl)hept-6-enoic acid, stitching residue), C=CCCCC(CCCC=C)(N[*:1])C(=O)[*:2]; TfeGA = (S)-2-amino-3-((carboxymethyl)(2,2,2-trifluoroethyl)amino)propanoic acid, O=C([C@H](CN(CC(=O)[*:3])CC(F)(F)F)N[*:1])[*:2]; B5(3) = 2,2-bis(4-pentenyl)glycine (stitching residue), C=CCCCC(CCCC=C)(N[*:1])C(=O)[*:2]; Bta = N[C@@H](Cc1csc2ccccc12)C(=O)O; αAllylPro = C=CC[C@@]1(C(=O)O)CCCN1; tBuAla = CC(C)(C)C[C@H](N)C(=O)O; 3Thi = N[C@@H](Cc1ccsc1)C(=O)O; Cha = N[C@@H](CC1CCCCC1)C(=O)O; S8 = C=CCCCCCC[C@](C)(N)C(=O)O
Endpoint Name: pEC50

- Binder: "Ac-[αAllylPro]D[tBuAla][B5(4)]DEAAFN[PyrS2″][3Thi][Bta]Q-NH2 (staple 1-4, 4-11; not fully specified; printed as Ac-PL3-Asp-Npg-B5-Asp-Glu-Ala-Ala-Phe-Asn-PyrS2-3Thi-BztA-Gln-NH2) [I-691]"
  Quantitative Result: 8.05
- Binder: "Ac-[αAllylPro]DI[B5(8)]D[TfeGA]AAFN[S8][3Thi][Bta]H-NH2 (staple 1-4, 4-11) [I-702]"
  Quantitative Result: 7.12
- Binder: "Ac-[αAllylPro]D[tBuAla][B5(4)]DEAAFN[PyrS2″][3Thi][Bta]Q-NH2 (staple 1-4, 4-11; not fully specified; printed as Ac-PL3-Asp-Npg-B5-Asp-Glu-Ala-Ala-Phe-Asn-PyrS2-3Thi-BztA-Gln-NH2) [I-690]"
  Quantitative Result: 8.15
- Binder: "Ac-[αAllylPro]DI[B5(8)]D[TfeGA]AAFN[S8][3Thi][Bta]Q-NH2 (staple 1-4, 4-11) [I-700]"
  Quantitative Result: 7.31
- Binder: "Ac-[αAllylPro]DI[B5(8)]D[TfeGA]AAFN[S8]F[Bta]Q-NH2 (staple 1-4, 4-11) [I-699]"
  Quantitative Result: 7.37
- Binder: "Ac-[αAllylPro]D[tBuAla][B5(8)]DDAAFN[PyrS2″][3Thi][Bta]H-NH2 (staple 1-4, 4-11) [I-694]"
  Quantitative Result: 8.30

I: Ac-[αAllylPro]D[tBuAla][B5(8)]DDAAFN[PyrS2″][3Thi][Bta]H-NH2 (staple 1-4, 4-11) [I-695]
II: Ac-[αAllylPro]D[tBuAla][B5(4)]DEAAFN[PyrS2″]F[Bta]H-NH2 (staple 1-4, 4-11; not fully specified; printed as Ac-PL3-Asp-Npg-B5-Asp-Glu-Ala-Ala-Phe-Asn-PyrS2-Phe-BztA-His-NH2) [I-692]
III: Ac-[αAllylPro]D[Cha][B5(3)]D[TfeGA]AAFN[S8][3Thi][Bta]H-NH2 (staple 1-4, 4-11) [I-709]
IV: Ac-[αAllylPro]D[tBuAla][B5(4)]DEAAFN[PyrS2″]F[Bta]Q-NH2 (staple 1-4, 4-11; not fully specified; printed as Ac-PL3-Asp-Npg-B5-Asp-Glu-Ala-Ala-Phe-Asn-PyrS2-Phe-BztA-Gln-NH2) [I-684]
Query: Order these by pEC50, descending, and give the full ranking. Put the labels in the requested order and write them down.
Response: I, II, IV, III
